Listed sequences paired with reported PBM E-score
Molecular target: Msn1 (UniProt P22148)
Sequence: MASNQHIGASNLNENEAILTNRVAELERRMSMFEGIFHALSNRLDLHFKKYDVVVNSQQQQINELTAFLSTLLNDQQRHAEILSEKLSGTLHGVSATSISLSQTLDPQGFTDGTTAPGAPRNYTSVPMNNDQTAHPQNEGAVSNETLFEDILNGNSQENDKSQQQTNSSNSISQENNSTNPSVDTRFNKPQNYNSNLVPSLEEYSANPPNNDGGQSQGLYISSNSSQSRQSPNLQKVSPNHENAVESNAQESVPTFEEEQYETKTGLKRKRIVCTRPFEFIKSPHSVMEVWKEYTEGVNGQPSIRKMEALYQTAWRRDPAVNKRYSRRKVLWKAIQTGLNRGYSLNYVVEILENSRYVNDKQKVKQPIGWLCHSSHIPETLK
Assay: PBM E-score (8-mer binding enrichment) (E-score (-0.5 to 0.5)); higher = stronger / more preferred TF binding
Details: protein concentration: 200 nM; construct: GST-full length
In all, about 33,000 sequences were measured (“E-score (-0.5 to 0.5)”: median about -0.013, highest 2% from about 0.3 on). This is one part of a sample in which the highest values are shown more often than they occur.
A bare number is all that is needed in reply.

Return reported PBM E-score; argument: `CCACAAAA`
0.0569

Please do the same for `AATCTACA` as well.
0.058

Next sequence: `GAATGTGC`
-0.148

How about `ATCCCGGG` ?
0.0417

Next entry: `ATATTCCG`
0.321

Now consider `ACTATGGG` and answer again.
-0.169

Again, but for `TAACAAAA`
0.228

Request: `AAGGCTAG`
0.0752

Others:
Return reported PBM E-score; argument: `ATATTCCC`
0.0634

Entry `CAACAAAC` please
-0.0143

Field entry: `TGACAAAA`
0.402

Ok, now `CGACAAAC`
0.36

# iterate: `AAATGTAC`
0.371

Field entry: `CGCGCCCG`
-0.0907

Input `ATCTGTTA`
0.183

Now try `ATATGTAA` .
0.131

// next record `AAACAAAC`
0.192

* * *

Molecular target: Msn1 (UniProt P22148)
Sequence: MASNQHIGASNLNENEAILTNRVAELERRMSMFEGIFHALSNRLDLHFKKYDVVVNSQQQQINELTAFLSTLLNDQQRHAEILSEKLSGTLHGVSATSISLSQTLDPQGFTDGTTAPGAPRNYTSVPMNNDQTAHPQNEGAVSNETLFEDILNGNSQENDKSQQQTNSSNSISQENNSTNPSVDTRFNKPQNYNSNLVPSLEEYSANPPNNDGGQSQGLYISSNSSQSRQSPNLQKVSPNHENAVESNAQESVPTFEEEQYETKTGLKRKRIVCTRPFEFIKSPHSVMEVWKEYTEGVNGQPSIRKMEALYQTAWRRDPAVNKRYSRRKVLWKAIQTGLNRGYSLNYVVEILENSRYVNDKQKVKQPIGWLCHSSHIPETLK
Assay: PBM E-score (8-mer binding enrichment) (E-score (-0.5 to 0.5)); higher = stronger / more preferred TF binding
Settings: protein concentration: 200 nM; construct: GST-full length
In all, about 33,000 sequences were measured (“E-score (-0.5 to 0.5)”: median about -0.013, highest 2% from about 0.3 on). This is one part of a sample in which the highest values are shown more often than they occur.
PBM E-score by entry:
API doc: respond with a numeric literal and nothing else, no unit.

Would you please look over these solved cases?
I am curious: what PBM E-score value has been reported for `CTGTCTCA` ?
0.087

Same again, this time with `AGATGCGA`
0.0645

Same again, this time with `ACGACACT`
0.123

// same read-out, input: `AAGCTGCG`
0.00828

Check `ACGTTCAG` too.
-0.0415

***
Param item = `ACGACACA` ; retrieve measured PBM E-score.
0.172

How about `ACATGTTA` ?
0.199

Another sequence to check: `GAGCTCGC`
-0.0509

Quick one: `CCGGACAC`
0.288

For `GTCGCGAA` then?
0.141

Cool, now `AAGACATG`
0.337

Field entry: `AGGACACA`
0.472

Ok, now `TCGGACCA`
0.12

Can you handle `TGGGACAA` next?
0.471

Query `GGTCCAAA` next
-0.0431
